STUDY_TARGET: PI3K delta (PI3 Kd) (Homo sapiens, UniProt O00329)
Construct: endogenous in cells; host or cells: Jurkat, clone E6-1 (ATCC TIB-152) cell lysate
Sequence (O00329 whole entry): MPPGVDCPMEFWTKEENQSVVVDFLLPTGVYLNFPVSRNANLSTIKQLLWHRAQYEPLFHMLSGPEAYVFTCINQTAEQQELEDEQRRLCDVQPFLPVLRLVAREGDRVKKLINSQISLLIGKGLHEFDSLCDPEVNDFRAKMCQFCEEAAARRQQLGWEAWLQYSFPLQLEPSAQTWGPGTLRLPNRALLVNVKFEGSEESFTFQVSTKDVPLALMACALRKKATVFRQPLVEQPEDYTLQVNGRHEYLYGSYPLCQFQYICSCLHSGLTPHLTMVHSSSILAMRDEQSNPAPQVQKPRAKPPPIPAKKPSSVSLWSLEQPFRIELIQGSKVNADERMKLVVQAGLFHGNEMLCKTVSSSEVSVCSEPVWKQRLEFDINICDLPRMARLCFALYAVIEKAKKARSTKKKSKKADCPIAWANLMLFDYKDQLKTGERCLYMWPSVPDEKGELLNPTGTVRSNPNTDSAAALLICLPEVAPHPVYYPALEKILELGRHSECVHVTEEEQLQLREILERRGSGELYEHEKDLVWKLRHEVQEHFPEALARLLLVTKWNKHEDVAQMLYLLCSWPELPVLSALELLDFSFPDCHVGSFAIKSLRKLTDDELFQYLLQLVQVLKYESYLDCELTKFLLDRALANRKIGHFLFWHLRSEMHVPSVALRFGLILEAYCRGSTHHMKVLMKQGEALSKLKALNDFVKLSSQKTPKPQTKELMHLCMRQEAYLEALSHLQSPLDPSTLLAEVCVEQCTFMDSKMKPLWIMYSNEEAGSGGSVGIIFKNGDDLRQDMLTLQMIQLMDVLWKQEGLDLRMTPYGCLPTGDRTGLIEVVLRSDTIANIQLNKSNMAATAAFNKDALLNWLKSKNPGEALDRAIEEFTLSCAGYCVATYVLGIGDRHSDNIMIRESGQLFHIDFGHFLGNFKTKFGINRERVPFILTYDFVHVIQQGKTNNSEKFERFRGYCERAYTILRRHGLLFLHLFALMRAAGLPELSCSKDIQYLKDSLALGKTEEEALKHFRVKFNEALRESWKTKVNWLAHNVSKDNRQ
Sequence (P27986 whole entry partner): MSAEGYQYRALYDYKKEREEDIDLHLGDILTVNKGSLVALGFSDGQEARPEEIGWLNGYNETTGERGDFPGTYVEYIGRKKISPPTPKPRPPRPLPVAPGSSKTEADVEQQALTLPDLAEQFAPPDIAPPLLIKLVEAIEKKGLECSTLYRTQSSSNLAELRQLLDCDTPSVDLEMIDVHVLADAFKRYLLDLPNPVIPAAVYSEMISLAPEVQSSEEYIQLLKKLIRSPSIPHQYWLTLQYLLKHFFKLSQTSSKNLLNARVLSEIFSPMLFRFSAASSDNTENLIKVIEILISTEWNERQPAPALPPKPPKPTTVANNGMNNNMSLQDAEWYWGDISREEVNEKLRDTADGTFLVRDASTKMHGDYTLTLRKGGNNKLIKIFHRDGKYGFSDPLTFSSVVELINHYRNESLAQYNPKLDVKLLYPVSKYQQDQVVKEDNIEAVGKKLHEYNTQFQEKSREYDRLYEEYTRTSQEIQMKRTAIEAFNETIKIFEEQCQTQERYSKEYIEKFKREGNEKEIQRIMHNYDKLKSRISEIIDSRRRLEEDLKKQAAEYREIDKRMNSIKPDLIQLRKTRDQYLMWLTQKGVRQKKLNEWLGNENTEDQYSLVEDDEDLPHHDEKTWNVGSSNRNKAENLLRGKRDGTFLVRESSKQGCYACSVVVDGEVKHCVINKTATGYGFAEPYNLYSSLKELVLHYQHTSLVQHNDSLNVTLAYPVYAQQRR
METHOD_NOTES: kinobeads assay, PI3K delta
Type: binding
CONDITION_DETAILS: kinobeads assay, Table 6; read-out: Inhibition values (IC50) PI3Kd
Assignment: determine reported IC50 for the given molecules.

Q: Send back PI3K delta (PI3 Kd) (Homo sapiens, UniProt O00329) IC50 of CCNC(=O)Nc1ccc(-c2nc3c(c(N4CCOC[C@@H]4C)n2)CN(C2CCN(C(C)=O)CC2)C3)cc1F [Example 117] only.
Result: > 10 µM

Q: Please respond with reported IC50 (system PI3K delta (PI3 Kd) (Homo sapiens, UniProt O00329)) for C[C@H]1COCCN1c1nc(-c2ccc(NC(=O)NC3CC3)cc2)nc2c1CCN(C(=O)C(C)(C)C)C2 [Example 64] .
Result: > 10 µM

Q: Report measured IC50 on PI3K delta (PI3 Kd) (Homo sapiens, UniProt O00329); entry: CCOC(=O)N1Cc2nc(-c3ccc(NC(=O)Nc4ccncc4)cc3)nc(N3CCOC[C@@H]3C)c2C1 [Example 121]
Result: > 10 µM

Q: Please look at C[C@H]1COCCN1c1nc(-c2ccc(NC(N)=O)cc2)nc2c1CN(C=O)C2 [Example 6] and tell me its recorded IC50 on PI3K delta (PI3 Kd) (Homo sapiens, UniProt O00329).
Result: 1 to 10 µM

Q: Give IC50 for this entry on PI3K delta (PI3 Kd) (Homo sapiens, UniProt O00329): CCNC(=O)Nc1ccc(-c2nc3c(c(N4CCOC[C@@H]4C)n2)CN(C=O)C3)cc1 [Example 8]
Result: > 10 µM

Q: Look up PI3K delta (PI3 Kd) (Homo sapiens, UniProt O00329) data: IC50 of CC(=O)N1CCc2c(nc(-c3ccc(NC(=O)NC4CC4)cc3)nc2N2CCOC[C@@H]2C)C1 [Example 62] , then report it.
Result: > 10 µM

Q: Report its IC50 with PI3K delta (PI3 Kd) (Homo sapiens, UniProt O00329) as the test system: CCNC(=O)Nc1ccc(-c2nc3c(c(N4CCOCC4)n2)CCNC3)cc1 [Example 82]
Result: > 10 µM

Q: Look up and report measured IC50 (PI3K delta (PI3 Kd) (Homo sapiens, UniProt O00329)) for the following molecule: CCNC(=O)Nc1ccc(-c2nc3c(c(N4CCOC[C@@H]4C)n2)CN(C(=O)C(C)C)C3)cc1 [Example 21]
Result: 1 to 10 µM

Q: # return IC50 for CCNC(=O)Nc1ccc(-c2nc3c(c(N4CCOC[C@@H]4C)n2)CN(C(=O)c2ccc(F)cc2)C3)cc1 [Example 19] , test system: PI3K delta (PI3 Kd) (Homo sapiens, UniProt O00329)
Result: > 10 µM

Q: Give the observed IC50 of CCNC(=O)Nc1ccc(-c2nc3c(c(N4CCOC[C@@H]4C)n2)CN(C(=O)OC(C)(C)C)C3)cc1 [Example 1] for PI3K delta (PI3 Kd) (Homo sapiens, UniProt O00329).
Result: > 10 µM

Q: Report measured IC50 on PI3K delta (PI3 Kd) (Homo sapiens, UniProt O00329); entry: CCOC(=O)N1Cc2nc(-c3ccc(NC(=O)Nc4ccc(CO)cc4)cc3)nc(N3CCOC[C@@H]3C)c2C1 [Example 119]
Result: > 10 µM

Q: // fetch IC50 for CC(=O)N(C)CCC(=O)N1Cc2nc(-c3ccc(NC(=O)NC4CC4)cc3)nc(N3CCOC[C@@H]3C)c2C1 [Example 135] ; system: PI3K delta (PI3 Kd) (Homo sapiens, UniProt O00329)
Result: 1 to 10 µM

Q: Return reported IC50 for target or system PI3K delta (PI3 Kd) (Homo sapiens, UniProt O00329), item CCN1Cc2nc(-c3ccc(NC(=O)NC4CC4)cc3)nc(N3CCOC[C@@H]3C)c2C1 [Example 36] .
Result: > 10 µM

Q: Send back PI3K delta (PI3 Kd) (Homo sapiens, UniProt O00329) IC50 of CCNC(=O)Nc1ccc(-c2nc3c(c(N4CCOC[C@@H]4C)n2)CCN(C(=O)C2CC2)C3)cc1 [Example 56] only.
Result: > 10 µM

Q: Enter measured IC50, system PI3K delta (PI3 Kd) (Homo sapiens, UniProt O00329), for the molecule shown: CCNC(=O)Nc1ccc(-c2nc3c(c(N4CCOCC4)n2)CCN(C(=O)NCC)C3)cc1 [Example 94]
Result: > 10 µM
